Biological target: CRF1R; note: reference of the scale not given here
Test: cell-based or functional assay
Ends that are not written are not given here.
Reported CRF1R Emax % values follow for various binders
# unit: % | format: bare number

Recorded results for 10 binders are shown here.
binder: ZGPPISIDLPLWLLRKMIEIEKQEKEKQQAANNRLLLDTI (C-terminal amide) [SEQ ID NO 218]
CRF1R Emax % [%]: 100

binder: NDDPPISIDLPFHLLRNMIEMARIENEREQAGLNAKYLAEV-NH2 [SEQ ID NO 262]
CRF1R Emax % [%]: 100

binder: ZGPPISIDLPTWLLRKVIEIEKQEKEKQQAANNARLLARI (C-terminal amide) [SEQ ID NO 291]
CRF1R Emax % [%]: 4.75

binder: ZGPPISIDLPIILLRKMIEIEKQEKEKQQAANNARLLARI (C-terminal amide) [SEQ ID NO 290]
CRF1R Emax % [%]: 6.4

binder: ZGPPISIDLPFQLLRKVIEIEKQEKEKQQAANNALLLATI (C-terminal amide) [SEQ ID NO 352]
CRF1R Emax % [%]: 82.6

binder: ZGPPISIDLPTYLLRILIEIEKQEKEKQQAANNRLLLDTI (not fully specified; C-terminal amide) [SEQ ID NO 252]
CRF1R Emax % [%]: 100

binder: ZGPPISIDLPFYLLRKMIEIEKQEKEKQQAANNALLLATI (C-terminal amide) [SEQ ID NO 231]
CRF1R Emax % [%]: 100

binder: ZGPPISIDVPLQLLRKVIEIEKQEKEKQQAANNARLLDTI (C-terminal amide) [SEQ ID NO 380]
CRF1R Emax % [%]: 16

binder: DNPSLSIDLPLFLLRTLLELEKTQSQRERAEQNARIFDRV-NH2 [SEQ ID NO 336]
CRF1R Emax % [%]: 59.9

binder: ZGPPISIDLPLQLLRKVIEIEKQEKEKQQATTNARILARV (C-terminal amide) [SEQ ID NO 320]
CRF1R Emax % [%]: 68.8

IN: # input binder: ZGPPISIDLPFFLLRKMIEIEKQEKEKQQAANNALLLDTI (C-terminal amide) [SEQ ID NO 318] ; wanted: its CRF1R Emax %
OUT: 92.8

IN: And ZGPPISIDLPHQLLRKMIEIEKQEKEKQQAANNRLLLDTI (C-terminal amide) [SEQ ID NO 212] ?
OUT: 100
